As a worked illustration, we turn to IC50 data collected for p110 alpha PI3K (Homo sapiens).
Respond numerically; units are nM and should not be typed.

# count of solved cases: 3
- CCCNc1cc(-c2cccc3[nH]ncc23)nc2c1cnn2C: 82.8
- Cn1ncc2c(Oc3ccc(S(C)(=O)=O)cc3)cc(-c3ccc4[nH]ncc4c3)nc21: 224
- COc1ccc(-c2cc(Oc3ccc(S(C)(=O)=O)cc3)c3cnn(C)c3n2)cn1: 47.5

Continue with the next compound.
The compound COc1cccc(Oc2cc(-c3cccc4[nH]ncc34)nc3c2cnn3C)c1 on p110 alpha PI3K (Homo sapiens): IC50 was 53
